Measured CD28 MFI at 33.3 nM of individual entries
molecular target: CD28 (Homo sapiens, UniProt P10747); experiment: Flow binding to Jurkat/IL2 reporter cells (CD28); parameters: host or cells: Jurkat cells expressing an IL-2-luciferase reporter; settings: Table E11; Jurkats (CD28); 33.3 nM
Hey, just send me the number, nothing else.

MOLECULE: T13R/Q33R/E35D/M47L/V68M (protein, CD80 v381 ECD) VIHVTKEVKEVARLSCGHNVSVEELAQTRIYWRKDKKMVLTMMSGDLNIWPEYKNRTIFDITNNLSIMILALRPSDEGTYECVVLKYEKDAFKREHLAEVTLSVKADFPTPSISDFETPTSNIRRIICSTSGGFPEPHLSWLENGEELNAINTTVSQDPETELYAVSSKLDFNMTTNHSFMCLIKYGHLRVNQTFNWNTTKQEHFPDN
CD28 MFI at 33.3 nM: 14.1

Then this molecule:
Q: Identify measured CD28 MFI at 33.3 nM corresponding to H18Y/E35D/M47I/V68M/Y87N (protein, UniProt P33681 35-288, looked up, variant H18Y E35D M47I V68M Y87N, Fc fusion) T-lymphocyte activation …: VIHVTKEVKEVATLSCGYNVSVEELAQTRIYWQKDKKMVLTMMSGDINIWPEYKNRTIFDITNNLSIMILALRPSDEGTYECVVLKNEKDAFKREHLAEVTLSVKADFPTPSISDFEIPTSNIRRIICSTSGGFPEPHLSWLENGEELNAINTTVSQDPETELYAVSSKLDFNMTTNHSFMCLIKYGHLRVNQTFNWNTTKQEHFPDNLLPSWAITLISVNGIFVICCLTYCFAPRCRERRRNERLRRESVRPV
A: 4038
